Each record here notes measured IC50.
# Target or test system: Inhibitor of nuclear factor kappa-B kinase subunit beta (Homo sapiens, UniProt O14920)
# Sequence (O14920 whole entry): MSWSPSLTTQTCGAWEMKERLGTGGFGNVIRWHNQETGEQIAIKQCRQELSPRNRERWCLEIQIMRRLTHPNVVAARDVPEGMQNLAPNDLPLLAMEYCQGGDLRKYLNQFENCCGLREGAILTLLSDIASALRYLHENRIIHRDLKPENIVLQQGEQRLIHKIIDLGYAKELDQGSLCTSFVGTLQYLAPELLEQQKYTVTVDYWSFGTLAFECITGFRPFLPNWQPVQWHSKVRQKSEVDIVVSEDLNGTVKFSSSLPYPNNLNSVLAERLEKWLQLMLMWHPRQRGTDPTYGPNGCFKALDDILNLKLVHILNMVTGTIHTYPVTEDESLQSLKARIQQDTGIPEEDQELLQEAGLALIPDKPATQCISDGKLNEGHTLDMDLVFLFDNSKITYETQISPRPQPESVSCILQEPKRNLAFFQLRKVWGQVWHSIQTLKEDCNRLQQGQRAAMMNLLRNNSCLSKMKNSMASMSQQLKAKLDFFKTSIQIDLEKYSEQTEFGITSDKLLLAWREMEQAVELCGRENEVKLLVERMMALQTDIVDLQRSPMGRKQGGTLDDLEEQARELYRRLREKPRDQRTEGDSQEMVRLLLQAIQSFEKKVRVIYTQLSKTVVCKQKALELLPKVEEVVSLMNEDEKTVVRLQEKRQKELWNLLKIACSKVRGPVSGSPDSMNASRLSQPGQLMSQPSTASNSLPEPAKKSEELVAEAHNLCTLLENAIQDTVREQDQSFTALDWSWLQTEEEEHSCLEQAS
# Assay overview: Inhibition of human recombinant C-terminal FLAG-epitope-tagged IKK2 expressed in baculovirus using biotinylated IkappaBalpha peptide as substrate assessed as decrease in [gamma-33P]-ATP incorporation in substrate after 30 mins by scintillation counting method

Answered cases to consult:
NC(=O)c1nn(-c2ccc3c(c2)OCO3)c2c1CCc1ccc(NC(=O)c3cc[n+]([O-])cc3)cc1-2 1 to 10 µM
CCCS(=O)(=O)c1ccc(-n2nc(C(N)=O)c3c2-c2cc(NS(C)(=O)=O)ccc2CC3)cc1 1 to 10 µM
NC(=O)c1nn(-c2ccc3c(c2)OCO3)c2c1CCc1ccc(NC(=O)c3cccc(O)n3)cc1-2 1 to 10 µM
NC(=O)c1nn(-c2ccc(S(N)(=O)=O)cc2)c2c1CCc1ccc(NC(=O)c3cccnc3Cl)cc1-2 ≤ 1 µM
CN(C)CCNc1cc(C(=O)Nc2ccc3c(c2)-c2c(c(C(N)=O)nn2-c2ccc(F)cc2)CC3)c(Cl)cn1 ≤ 1 µM
CC(=O)Nc1nc(C)c(S(=O)(=O)Nc2ccc3c(c2)-c2c(c(C(N)=O)nn2-c2ccc(S(N)(=O)=O)cc2)CC3)s1 1 to 10 µM

Ask | Give IC50 for NC(=O)c1nn(-c2ccc(S(N)(=O)=O)cc2)c2c1CCc1ccc(NS(=O)(=O)c3ccc(F)c(F)c3)cc1-2
Reply | 10 to 100 µM

Ask | Quickly give me recorded IC50 for CNCC(=O)Nc1ccc2c(c1)-c1c(c(C(N)=O)nn1-c1ccc3c(c1)OCO3)CC2
Reply | 1 to 10 µM

Ask | Quick one: give measured IC50 for NC(=O)c1nn(-c2ccc(S(N)(=O)=O)cc2)c2c1CCc1ccc(NS(=O)(=O)c3cccc(Br)c3)cc1-2
Reply | 1 to 10 µM

Ask | Item NC(=O)c1nn(-c2ccc(S(N)(=O)=O)cc2)c2c1CCc1ccc(NC(=O)c3cccs3)cc1-2 : provide IC50
Reply | 10 to 100 µM

Ask | Could you please provide reported IC50 for NC(=O)c1nn(-c2ccc(S(N)(=O)=O)cc2)c2c1CCc1ccc(NS(=O)(=O)c3ccc(F)cc3F)cc1-2 ? Thanks!
Reply | 10 to 100 µM

Ask | // Input: NC(=O)c1nn(-c2ccc(S(N)(=O)=O)cc2)c2c1CCc1ccc(NC(=O)C3CC3)cc1-2 . Output its IC50 only.
Reply | 1 to 10 µM

Ask | Consider the compound COc1ccccc1C(=O)Nc1ccc2c(c1)-c1c(c(C(N)=O)nn1-c1ccc(S(N)(=O)=O)cc1)CC2 . State its measured IC50.
Reply | 10 to 100 µM

Ask | Report IC50, nothing else, for this compound: N#Cc1cccc(C(=O)Nc2ccc3c(c2)-c2c(c(C(N)=O)nn2-c2ccc(S(N)(=O)=O)cc2)CC3)c1
Reply | ≤ 1 µM

Ask | Consider the compound NC(=O)c1nn(-c2ccc(S(N)(=O)=O)cc2)c2c1CCc1ccc(NS(=O)(=O)c3ccc(-c4ccccc4)cc3)cc1-2 . State its measured IC50.
Reply | 1 to 10 µM

Ask | Given NC(=O)c1nn(-c2ccc(/C=C/C(=O)NCc3ccccc3)cc2)c2c1CCc1ccc(NC(=O)c3ccccc3Cl)cc1-2 , respond with its IC50.
Reply | 1 to 10 µM
